Heads up, these molecules all have pKi values measured for UniProt:P41145.
Keep it numeric: pKi is minus log10 of the concentration in mol/L.

stdin: Provide the documented pKi with UniProt:P41145 as the system for Cc1cc(O)cc(C)c1C[C@H](N)C(=O)N1CCc2ccc(Cc3cncc4ccccc34)cc2C1
stdout: 9.14

stdin: Provide the documented pKi with UniProt:P41145 as the system for Cc1cc(O)cc(C)c1C[C@H](N)C(=O)N1CCc2ccc(Cc3ccncc3)cc2C1
stdout: 7.36

stdin: Provide the documented pKi with UniProt:P41145 as the system for Cc1cc(O)cc(C)c1C[C@H](N)C(=O)N1CCc2ccc(CN3CCc4ccccc4C3)cc2C1
stdout: 7.38

stdin: Provide the documented pKi with UniProt:P41145 as the system for Cc1cc(O)cc(C)c1C[C@H](N)C(=O)N1CCc2ccc(Cc3cccc4cccnc34)cc2C1
stdout: 7.72

stdin: Provide the documented pKi with UniProt:P41145 as the system for COc1ccccc1Cc1ccc2c(c1)CN(C(=O)[C@@H](N)Cc1c(C)cc(O)cc1C)CC2
stdout: 8.51

stdin: Provide the documented pKi with UniProt:P41145 as the system for Cc1cc(O)cc(C)c1C[C@H](N)C(=O)N1CCc2ccc(CN3CCCC3)cc2C1
stdout: 7.16

stdin: Provide the documented pKi with UniProt:P41145 as the system for Cc1cc(O)cc(C)c1C[C@H](N)C(=O)N1CCc2ccc(Cc3ccccc3C(F)(F)F)cc2C1
stdout: 8.59

stdin: Provide the documented pKi with UniProt:P41145 as the system for Cc1cc(O)cc(C)c1C[C@H](N)C(=O)N1CCc2ccc(Cc3cccc(O)c3)cc2C1
stdout: 9.10

stdin: Provide the documented pKi with UniProt:P41145 as the system for Cc1cc(O)cc(C)c1C[C@H](N)C(=O)N1CCc2ccc(Cc3cccc4ncccc34)cc2C1
stdout: 8.82

stdin: Provide the documented pKi with UniProt:P41145 as the system for Cc1cc(O)cc(C)c1C[C@H](N)C(=O)N1CCc2ccc(Cc3cccc4cnccc34)cc2C1
stdout: 8.00

stdin: Provide the documented pKi with UniProt:P41145 as the system for Cc1cc(O)cc(C)c1C[C@H](N)C(=O)N1CCc2ccc(Cc3cccc4ccncc34)cc2C1
stdout: 8.57

stdin: Provide the documented pKi with UniProt:P41145 as the system for Cc1cc(O)cc(C)c1C[C@H](N)C(=O)N1CCc2ccc(CN3CCc4ccccc43)cc2C1
stdout: 8.59

stdin: Provide the documented pKi with UniProt:P41145 as the system for Cc1cc(O)cc(C)c1C[C@H](N)C(=O)N1CCc2ccc(Cc3cccc(C(F)(F)F)c3)cc2C1
stdout: 8.27

stdin: Provide the documented pKi with UniProt:P41145 as the system for Cc1cc(O)cc(C)c1C[C@H](N)C(=O)N1CCc2ccc(Cc3ccnc4ccccc34)cc2C1
stdout: 8.07

----------
- assayed_target: human KOR (Homo sapiens)
experimental_readout: Ki (nM)
Respond with the bare value in nM.

1) Cc1cc(O)cc(C)c1C[C@H](N)C(=O)N1CCc2ccc(CN3CCCCC3)cc2C1; 29

stdin: For Cc1cc(O)cc(C)c1C[C@H](N)C(=O)N1CCc2ccc(Cc3ccccc3O)cc2C1 , what is its reported Ki?
stdout: 0.32

stdin: For Cc1cc(O)cc(C)c1C[C@H](N)C(=O)N1CCc2ccc(Cc3ccccc3C#N)cc2C1 , what is its reported Ki?
stdout: 0.5

stdin: For Cc1cc(O)cc(C)c1C[C@H](N)C(=O)N1CCc2ccc(Cc3cccc4ccccc34)cc2C1 , what is its reported Ki?
stdout: 4.7
